- target.or.test.system: T1, His-tagged mouse CD38 (ACRO Biosystems CD8-M5223) (mouse, UniProt P56528 45-304)
- T1 construct: bought protein; used for ELISA coating and as SPR analyte; also called Murine; not shown: His tag
- T1 sequence (looked up): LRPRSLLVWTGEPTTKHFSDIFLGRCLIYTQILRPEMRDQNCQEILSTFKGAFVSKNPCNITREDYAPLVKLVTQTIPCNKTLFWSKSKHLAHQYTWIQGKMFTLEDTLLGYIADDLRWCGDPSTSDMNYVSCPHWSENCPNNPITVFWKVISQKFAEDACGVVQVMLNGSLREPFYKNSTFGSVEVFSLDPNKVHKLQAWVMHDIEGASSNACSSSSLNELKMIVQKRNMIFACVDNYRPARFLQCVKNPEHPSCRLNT
- method.notes: ELISA, 1 ug/ml scFv-Fc, coated His-tagged CD38
ELISA signal values, listed per item

| binder | ELISA signal |
| --- | --- |
| 40769p2.2.E12 scFv-Fc (scFv, V domains shown, scFv-Fc) VH: EVQLLESGGGLIQPGGSLRLSCTASGFDFSSYGMHWVRQAPGKGLEWVGIISDTGGTTYYGDSVKGRFTISRDNSKSTLYLQMNSLRAEDTALYYCASYIMDVWGQGTTVTVSS VL: QSVLTQPPSASGTPGQRVTISCSGSNSNVGDNAVYWYQQPPGTAPKLLFYGTNRRPSGVPDRFSGSKSGTSASLAISGLQSEDEADYYCAAWDDSLNAWVFGGGTKLTVL | 1.26 |
| 40769p2.2.A5 scFv-Fc (scFv, V domains shown, scFv-Fc) VH: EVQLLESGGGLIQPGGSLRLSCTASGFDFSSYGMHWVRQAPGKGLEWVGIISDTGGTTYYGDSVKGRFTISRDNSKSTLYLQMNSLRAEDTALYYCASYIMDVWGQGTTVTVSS VL: QSVLTQPPSASGTPGQRVTISCSGSNSNVGDNAVYWYQQLPGTAPKLLFYGTNRRPSGVPDRFSGSKSGTSASLAISGLQSEDEADYYCAAWDDSLNAWVFGGGTKLTVL | 1.27 |
| 40769p2.2.A6 scFv-Fc (scFv, V domains shown, scFv-Fc) VH: EVQLLESGGGLVQPGGSLRLSCAASGFTFSDYEMNWVRQAPGKGLEWVSAISITGSWTYYADSVKGRFTISRDNSENTLYLQMNNLRAEDTAVYYCANYKSYYGMDVWGRGTTVTVSS VL: QSVLTQPPSASGTPGQRVTISCSGSRSNIRNNLVNWYQQLPGTAPKLLIYNTQRPSGVPDRFSGSKSGTSASLAISGLQSEDEADYYCASWDASLNAWVFGGGTKLTVL | 0.043 |

These data points were gathered from patent US20220306762A1.
